Target System: Alpha-2C adrenergic receptor (Homo sapiens) (UniProt P18825)
Sequence (P18825 whole entry, looked up): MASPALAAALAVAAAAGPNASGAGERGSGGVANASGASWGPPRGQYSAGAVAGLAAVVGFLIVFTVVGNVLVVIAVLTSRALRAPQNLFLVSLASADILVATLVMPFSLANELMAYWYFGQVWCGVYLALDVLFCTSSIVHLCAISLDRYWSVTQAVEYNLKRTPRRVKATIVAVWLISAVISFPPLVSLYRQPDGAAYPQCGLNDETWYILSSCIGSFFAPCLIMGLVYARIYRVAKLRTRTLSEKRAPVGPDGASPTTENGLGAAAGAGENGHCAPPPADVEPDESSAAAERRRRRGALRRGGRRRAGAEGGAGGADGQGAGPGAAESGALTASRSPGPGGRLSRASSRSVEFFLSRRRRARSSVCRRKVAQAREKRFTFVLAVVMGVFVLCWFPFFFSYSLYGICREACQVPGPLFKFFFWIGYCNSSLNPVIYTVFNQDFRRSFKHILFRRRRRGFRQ
Test Summary: modulators of alpha2C/GIRK thallium flux, primary screen, cell-based, HEK293 alpha2C/GIRK1/2 (AID 624);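 also: slope of fluorescence ratio to pre-addition baseline per second over 15 to 24 s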
Assay Conditions: thallium flux BTC fluorescence, at 10 µM, actives lie on both sides
Activity calls are given as the source filed them.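 The calls were made as follows: active = fluorescence slope after compound addition differing from the mean of all screened samples at 99.7% confidence, in either direction; inactive = the rest.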
# slope annotations

Answered examples (3):
{"columns": ["Compound", "Target System", "slope"],
 "data": [
  ["Cc1ccc(-c2cc(C(=O)O)n[nH]2)o1", "Alpha-2C adrenergic receptor (Homo sapiens) (UniProt P18825)", "0.00603 (inactive)"],
  ["O=C(COc1ccc(F)cc1Br)N1CCc2ccccc21", "Alpha-2C adrenergic receptor (Homo sapiens) (UniProt P18825)", "0.0054 (inactive)"],
  ["COc1cc(NC(=O)C2CCCN2S(=O)(=O)c2cccc3cccnc23)cc(OC)c1OC (stereo unspecified)", "Alpha-2C adrenergic receptor (Homo sapiens) (UniProt P18825)", "0.00756 (inactive)"]
]}

Lab book: slope of CCOC(=O)CSc1nnc(Cn2c(=O)sc3ccccc32)n1C noted as 0.00614 (inactive)

Recorded slope (compound CC1CCc2nn(CC(=O)NCCN3CCCCC3C)cc2C1 (stereo unspecified) ): 0.00605 (inactive)

* * *

Target System: Voltage-gated potassium channel subunit beta-2 (Rattus norvegicus) (UniProt P62483)
Sequence (P62483 whole entry, looked up): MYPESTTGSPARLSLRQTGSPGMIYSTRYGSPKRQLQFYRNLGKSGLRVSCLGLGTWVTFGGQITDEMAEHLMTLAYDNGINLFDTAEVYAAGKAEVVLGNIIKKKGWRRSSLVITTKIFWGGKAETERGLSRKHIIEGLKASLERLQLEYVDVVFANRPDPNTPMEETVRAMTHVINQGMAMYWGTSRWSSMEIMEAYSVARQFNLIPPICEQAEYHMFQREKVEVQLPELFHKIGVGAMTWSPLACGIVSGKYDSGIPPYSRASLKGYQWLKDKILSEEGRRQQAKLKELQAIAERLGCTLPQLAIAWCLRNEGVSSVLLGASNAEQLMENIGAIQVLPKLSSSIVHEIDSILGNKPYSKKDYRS
Test Summary: KvBeta enzyme negative modulators, primary screen, biochemical, NADPH fluorescence (AID 622);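 also: slope of raw intensity against log time taken from 70 to 1610 s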
Assay Conditions: recombinant KvBeta, 4-cyanobenzaldehyde reduction, at 10 µM, stronger effect = higher value
Where a SMILES comes first, the peptide text is derived from it.
Binning of fluorescence slope into classes: group 1 = under -0.5, group 2 = from -0.5 up to -0.4, group 3 = -0.4 and over

Consider the following illustrative entries.
{"columns": ["Compound", "Qualitative Label"],
 "data": [
  ["CC(=O)NC(C(=O)NCC(N)=O)C(C)C (configuration not stated) (HELM PEPTIDE1{[ac].[CC(C)C(N[*:1])C(=O)[*:2]].G.[am]}$$$$V2.0)", "group 1"],
  ["O=C(C1=C(O)C(=O)N(CCCN2CCOCC2)C1c1ccccn1)c1cc2ccccc2o1 (configuration not stated)", "group 2"],
  ["O=C(CCNS(=O)(=O)c1ccc(Cl)cc1)NCc1ccccn1", "group 3"],
  ["N#Cc1c(NC(NC(=O)c2ccco2)C(=O)c2ccccc2)sc2c1CCCC2 (configuration not stated)", "group 3"]
]}

Kindly state the category for this compound: Nc1nc2n(n1)C(c1cccc(Br)c1)CC(c1ccc(F)cc1)N2 (configuration not stated)
group 1

Record CCCCOCCCNC(=O)c1cccs1 — which class?
group 2

// return the class label for CCOc1cc(C2C3=C(CCCC3=O)N(C)C3=C2C(=O)CCC3)cc(Cl)c1O
group 2

* * *

Test Summary: inhibitors of E-selectin induction by TNFa, primary screen, imaging, HUVEC, immunofluorescence, MLSMR starter and 10KST1 sets (AID 487);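 also: 100% = median nuclei count of all wells on the same plate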
Assay Conditions: HUVEC TNFalpha-induced E-selectin immunofluorescence imaging, at 2 µM; measured here: cell number, toxicity
Endpoint Label: nuclei count (%)
Give the value, in units of %, as a plain number.

Please review the following examples before continuing.
{"columns": ["Compound", "Unit String", "nuclei count"],
 "data": [
  ["O=C(CCCc1cccs1)Nc1nc2c(s1)CCCC2", "%", 150],
  ["CCCCOCCCNC(=O)c1ccc(NC(C)=O)cc1", "%", 115],
  ["C=CCn1c(SCn2nnc3ccccc3c2=O)nnc1-c1ccc(Br)cc1", "%", 110],
  ["COc1ccc(OC)c(-c2nc3c(C)n[nH]c(=O)c3[nH]2)c1", "%", 118],
  ["CCOc1ccc(C2C(C#N)=C(N)Oc3cc(C)n(Cc4ccco4)c(=O)c32)cc1OC (stereo unspecified)", "%", 105]
]}

Let us examine a further case.
Recorded nuclei count (compound Cn1c(=O)c2c(nc(NCc3ccco3)n2Cc2ccccc2Cl)n(C)c1=O ): 92.2
